- experimental-target: T1, DLG3_3, Q92796
- T1 sequence (Q92796 374-475, limits assumed, looked up): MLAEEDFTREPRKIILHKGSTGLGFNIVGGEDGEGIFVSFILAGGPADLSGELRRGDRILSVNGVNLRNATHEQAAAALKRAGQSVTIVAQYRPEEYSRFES
- protocol-summary: holdup assay
- Design: key: below the threshold = too weak to quantify, mostly under pKd 3.1 to 4
- condition: plain residues with an end cap or a label only (N-terminal biotin on a linker: ado-ado)
endpoint-name: pKd

Sample answers from the record:
binder	pKd
YYKRPVQEWV [MMP24, Q9Y5R2]	below the threshold
QKNRKAQEDL [CES3, Q6UWW8]	below the threshold
HSGYRLNDYV [CLDN14, O95500]	below the threshold
VDSTVKVWTC [TRAF7, Q6Q0C0]	below the threshold
RRISSLESEV [GRIN2C, Q14957]	4.11
RRRESYSTTV [EVI5, O60447]	4.28
QGLAERISVL [PRKD2, Q9BZL6]	below the threshold
TASPAKETSF [SLC2A7, Q6PXP3]	below the threshold

Provide reported pKd for each item, in the same order as listed.
1. DDPSTAETVL [ABCA7, Q8IZY2]
2. QSARLWETSI [ADAM22, Q9P0K1]
3. QSLNRMEYIV [JAG1, P78504]
4. DTTVPESEDL [MYOZ2, Q9NPC6]
5. PPYRHRNTVV [ERBB4, Q15303]
6. SSALYGESDL [ACTN2, P35609]

1. below the threshold
2. 4.29
3. below the threshold
4. below the threshold
5. 4.16
6. 3.6
